target: CB2 receptors (Mus musculus); construct: the complete brain (excluding the cerebellum) and the spleen were quickly dissected and kept in ice; from tissue; host or cells: mouse spleen, membrane preparation; test: radioreceptor binding, displacement of [3H]-CP-55,940, CB2 (spleen)
Sequence (P47936 whole entry): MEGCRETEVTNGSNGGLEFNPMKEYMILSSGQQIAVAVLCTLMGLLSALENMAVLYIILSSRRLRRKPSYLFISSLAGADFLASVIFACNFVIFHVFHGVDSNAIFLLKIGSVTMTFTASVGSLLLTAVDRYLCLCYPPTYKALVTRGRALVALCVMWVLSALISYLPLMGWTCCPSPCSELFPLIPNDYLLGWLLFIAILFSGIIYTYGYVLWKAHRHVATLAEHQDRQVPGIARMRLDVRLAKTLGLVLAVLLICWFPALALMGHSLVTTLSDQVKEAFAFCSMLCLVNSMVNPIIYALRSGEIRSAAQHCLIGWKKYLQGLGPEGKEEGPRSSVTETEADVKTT
readout: Ki (nM)
The figure you give is taken to be in nM; do not add the unit.

Value lookup for Ki; key = Cc1ccc2c(c1)oc1c(C(=O)NC3C4(C)CCC(C4)C3(C)C)nn(-c3ccc(Cl)cc3Cl)c12 (centres unmarked)
2.5

Value lookup for Ki; key = Cc1ccc2c(c1)oc1c(C(=O)NC3CCCCC3)nn(-c3ccc(Cl)cc3Cl)c12
15.6

Value lookup for Ki; key = Cc1ccc2c(c1)oc1c(C(=O)N[C@@H]3C[C@H]4C[C@@H]([C@@H]3C)C4(C)C)nn(-c3ccc(Cl)cc3Cl)c12
3.7

Value lookup for Ki; key = Cc1ccc2c(c1)oc1c(C(=O)NN3CCCC3)nn(-c3ccc(Cl)cc3Cl)c12
29.5

Value lookup for Ki; key = Cc1ccc2c(c1)oc1c(C(=O)NC34CC5CC(CC(C5)C3)C4)nn(-c3ccc(Cl)cc3Cl)c12
28
